target: Acetyl-CoA carboxylase (Homo sapiens, UniProt Q13085+O00763); experiment: Inhibition of human ACC1/2-mediated malonyl-CoA synthesis; format: protein assay
Recorded Endpoint: IC50 (nM)

>>> assay_value("CC(=O)N1CCC(C(=O)N2CCC(N3CCN(C(=O)c4cc(-c5ccccc5)nc(-c5ccc(CCO)cc5)c4)CC3)CC2)CC1")
27
>>> assay_value("CC(=O)N1CCC(C(=O)N2CCC(N3CCN(C(=O)c4cc(-c5ccccc5)nc(-c5ccc(CCCO)cc5)c4)CC3)CC2)CC1")
70
>>> assay_value("CC(=O)N1CCC(C(=O)N2CCC(N3CCN(C(=O)c4cc(-c5ccccc5)nc(-c5ccc6c(c5)CC(=O)N6)c4)CC3)CC2)CC1")
54
>>> assay_value("CC(=O)N1CCC(C(=O)N2CCC(N3CCN(C(=O)c4cc(-c5ccccc5)nc(-c5ccc6[nH]ccc6c5)c4)CC3)CC2)CC1")
55

I. CC(=O)N1CCC(C(=O)N2CCC(N3CCN(C(=O)c4cc(-c5ccccc5)nc(-c5ccc6c(ccn6C)c5)c4)CC3)CC2)CC1
II. CC(=O)N1CCC(C(=O)N2CCC(N3CCN(C(=O)c4cc(-c5ccccc5)nc(-c5ccc6[nH]c(C)c(C#N)c6c5)c4)CC3)CC2)CC1
Ask | Choose between I and II : whose measured IC50 value is numerically larger? Answer = label.
Reply | I
